- System: OVCAR-4
- measurement description: NCI tumour cell line growth inhibition, 48 h
Active and inactive are the calls of the source. Cut-off read from the data, not from the text of the source: active = GI50 up to about 1.1 µM and inactive = higher.
endpoint: GI50

// worked examples, GI50 included
CC(=O)NCC1(c2ccccc2)CCN(CC2COc3ccccc3O2)CC1 (centres undefined) : > 100 µM (inactive)
CC(C)N(C(C)C)S(=O)(=O)C[C@]12CC[C@H](CC13OCC(CS(=O)(=O)c1ccccc1)O3)C2(C)C (some centres undefined) : 40.8 µM (inactive)
NS(=O)(=O)c1ccc(NC(=O)N/N=C/c2ccccc2O)cc1 : > 100 µM (inactive)
CCOC(=O)c1nc2ccccc2nc1Nc1ccc(OC)c(OC)c1 : > 100 µM (inactive)
O=C(O)CN(CCNC(=O)OCC1c2ccccc2-c2ccccc21)CCNC(=O)OCC1c2ccccc2-c2ccccc21 : 27.1 µM (inactive)
Cc1ccc2n(c1)cc(-c1ccc(/C=N/NC(=N)N/N=C/c3ccc(-c4cn5cc(C)ccc5[n+]4C)cc3)cc1)[n+]2C : 26.9 µM (inactive)

(Q) Quote GI50 reported for CC(=O)c1cccc(NCn2nnc3ccccc32)c1 please.
(A) > 100 µM (inactive)

(Q) Quote GI50 reported for COC(CN(C(C)=O)C1CCC2(SCCS2)c2[nH]c3ccccc3c21)OC (centres undefined) please.
(A) 62.7 µM (inactive)

(Q) Quote GI50 reported for COc1ccc(C(=O)/C=C/c2ccc(OCC#N)cc2)cc1 please.
(A) 32.7 µM (inactive)

----------
- Tested on: Hs-578T
- measurement description: NCI tumour cell line growth inhibition, 48 h
Calls of active or inactive are those of the source. Cut-off read from the data, not from the text of the source: active = GI50 up to about 1.1 µM and inactive = higher. Peptide text beside a SMILES is read from it.
GI50 overview

// worked examples, GI50 included
[N-]=[N+]=NC1=C(N=[N+]=[N-])c2cccc3cccc(c23)C1=O : > 100 µM (inactive)
CN(C)CCNC(=O)c1ccc2nc3c(nc2c1)C(=O)c1ccccc1-3 : 52.2 µM (inactive)
O=[N+]([O-])C(=C(N1CCOCC1)N1CCOCC1)/C(Cl)=C(\Cl)[N+](=O)[O-] : 1.18 µM (inactive)
O=C(/C=C/c1ccc(Cl)cc1)c1nc2ccccc2[nH]1 : 72.1 µM (inactive)
CC1(C)CC(Nc2ccc(Nc3ccccc3)cc2)CC(C)(C)N1 : 25.4 µM (inactive)
N#Cc1c(N2CCN(c3ccc([N+](=O)[O-])cc3)CC2)[n+]([O-])c2ccc(Cl)cc2[n+]1[O-] : 2.11 µM (inactive)
O=S(=O)(O)C(Cc1nc2ccccc2[nH]1)S(=O)(=O)OCCC1S(=O)(=O)OCCOS1(=O)=O (configuration not stated) : > 100 µM (inactive)
CSc1c2c(C)n[nH]c2nn1-c1ccccc1 : > 100 µM (inactive)

Turning now to a further compound:
(Q) Quote GI50 reported for CC(=O)NC(CS)C(=O)NC(CO)C(=O)NC(CO)C(=O)NC(Cc1c[nH]c2ccccc12)C(=O)N1CCCC1C(=O)NC(CO)C(=O)NC(Cc1c[nH]c2ccccc12)C(=O)NC(Cc1c[nH]cn1)C(=O)NC(CO)C(=O)NC(Cc1c[nH]c2ccccc12)C(=O)NCC(=O)NCC(=O)NC(C)C(=O)NC(CCC(N)=O)C(=O)NC(CCCCN)C(=O)NC(C)C(=O)NC(CCCNC(=N)N)C(=O)NC(CCCCN)C(N)=O (configuration not stated) (Ac-CSSWPSWHSWGGAQKARK-NH2; configuration not given here) please.
(A) 29.2 µM (inactive)

----------
- Test system: PC-3
- measurement description: NCI tumour cell line growth inhibition, 48 h
Active and inactive are the calls of the source. Cut-off read from the data, not from the text of the source: active = GI50 up to about 1.1 µM and inactive = higher.
GI50 overview

C(/Cc1ccc2c(c1)OCO2)=N\N=C1NCCCCN1 : 86.1 µM (inactive)

(Q) Specify the recorded GI50 for COc1ccc2nc3cc([N+](=O)[O-])ccc3c(NNc3ccc([N+](=O)[O-])cc3)c2c1 , system: PC-3.
(A) 22.4 µM (inactive)

(Q) Specify the recorded GI50 for O=C(CN1CCOCC1)c1ccc2c(c1)oc(=O)n2CCN1CCCC1 , system: PC-3.
(A) > 100 µM (inactive)

(Q) Specify the recorded GI50 for CCOC(=O)c1ccc(N[C@@H]2c3cc4c(cc3C(c3cc(OC)c(O)c(OC)c3)[C@H]3C(=O)OCC32)OCO4)cc1 (stereo not given in full) , system: PC-3.
(A) 1.61 µM (inactive)

----------
GI50 overview
- Tested on: MDA-MB-435
- measurement description: NCI tumour cell line growth inhibition, 48 h
Activity calls are given as the source filed them. No stated cut-off is given here; in the data, active = GI50 up to about 1.1 µM and inactive = higher.

// worked examples, GI50 included
CCCCCCSc1nc(COC(=O)NC)c(COC(=O)NC)n1C : > 100 µM (inactive)
O=C(CSCC(=O)N/N=C/c1ccc2c(c1)OCO2)N/N=C/c1ccc2c(c1)OCO2 : 38.3 µM (inactive)
NCCNC(=S)S : > 100 µM (inactive)
COC(=O)C1=C(C)NC2(O)C=CC(=O)C3C(=O)N(c4ccccc4)C(=O)C132 (stereo not given) : 64.7 µM (inactive)
O=C1c2ccccc2/C=C\C(c2ccccc2)=N/N1c1ccccc1Cl : 3.44 µM (inactive)

(Q) Quote GI50 reported for Clc1ccccc1-c1nnc2c(-c3ccccc3)nc3ccccc3n12 please.
(A) 52.7 µM (inactive)

(Q) Quote GI50 reported for CCn1c2c(n(CC)c1=S)-c1c(n(CC)c(=S)n1CC)SSSS2 please.
(A) 13.3 µM (inactive)

(Q) Quote GI50 reported for Cc1ccc(/N=N/C(=N/NC(=O)c2cc(Cl)ccc2O)c2ccc(N(CCC#N)CCC#N)cc2C)cc1 please.
(A) 34 µM (inactive)

(Q) Quote GI50 reported for N=C(N)c1ccc(OCCCCCOc2ccc(C(=N)N)cc2)cc1 please.
(A) 10.4 µM (inactive)

(Q) Quote GI50 reported for CC1(C)O[C@@H](CO)[C@H]([C@@]23OC[C@H]4OC(C)(C)OC4[C@@H]2OC(C)(C)O3)O1 (stereo not given in full) please.
(A) > 100 µM (inactive)

----------
GI50 overview
- Tested on: SNB-19
- measurement description: NCI tumour cell line growth inhibition, 48 h
The source made the active and inactive calls. Rule as the data show it: active = GI50 up to about 1.1 µM and inactive = higher. Peptide text beside a SMILES is read from it.

// worked examples, GI50 included
COC1(C2c3ccccc3CCN2C(=O)OC(C)(C)C)C(=O)C(c2ccccc2)=C1N(C)C (stereo unspecified) : 27.5 µM (inactive)
C=C1c2[nH]c3c([N+](=O)[O-])c(OC)ccc3c2CCN1C(C)=O : > 100 µM (inactive)
CCOC(=O)c1c(N2CCOCC2)[nH]c(=O)c(C(c2ccc(Cl)c([N+](=O)[O-])c2)c2c(O)c(C(=O)OCC)c(N3CCOCC3)[nH]c2=O)c1O : 26.5 µM (inactive)

(Q) Quote GI50 reported for CC(=O)NC(CS)C(=O)NC(CO)C(=O)NC(CO)C(=O)NC(Cc1c[nH]c2ccccc12)C(=O)N1CCCC1C(=O)NC(CO)C(=O)NC(Cc1c[nH]c2ccccc12)C(=O)NC(Cc1c[nH]cn1)C(=O)NC(CO)C(=O)NC(Cc1c[nH]c2ccccc12)C(=O)NCC(=O)NCC(=O)NC(C)C(=O)NC(CCC(N)=O)C(=O)NC(CCCCN)C(=O)NC(C)C(=O)NC(CCCNC(=N)N)C(=O)NC(CCCCN)C(N)=O (stereo unspecified) (Ac-CSSWPSWHSWGGAQKARK-NH2; configuration not given here) please.
(A) > 50 µM (inactive)

(Q) Quote GI50 reported for CCCCCc1cccc(=O)o1 please.
(A) > 100 µM (inactive)

(Q) Quote GI50 reported for CC1=CC(C)(c2c[nH]c3ccccc23)CC(C)(C)c2c1[nH]c1ccccc21 (stereo unspecified) please.
(A) 26.5 µM (inactive)

(Q) Quote GI50 reported for O=C(NC(Cc1c[nH]c2ccccc12)C(=O)O)/C(=C/c1ccccc1)NC(=O)c1ccccc1 (stereo unspecified) please.
(A) > 92 µM (inactive)

----------
- System: NCI/ADR-RES
- measurement description: NCI tumour cell line growth inhibition, 48 h
The source made the active and inactive calls. Cut-off read from the data, not from the text of the source: active = GI50 up to about 1.1 µM and inactive = higher.
Form entry, call: pick from TRUE (active), FALSE (inactive)

N=C(N)N/N=C/c1c(-c2ccc([N+](=O)[O-])cc2)nc2sc(Cl)cn12 : FALSE

(Q) For this compound, state the assay outcome: Cn1cnnc1SC(F)(F)c1nc2ccccc2o1
(A) FALSE

(Q) For this compound, state the assay outcome: CC(=O)OCC(OC(C)=O)C1C[C@H]2O[C@@H]3[C@H](C[C@H]2O1)O[C@@]1(C[C@@H]3C)C[C@H](C)[C@@H]2O[C@]3(C[C@@H]2O1)C[C@H]1O[C@H]2[C@H](C)[C@H]4OC(=O)C[C@H]5CC[C@@H]6OC7[C@H]8O[C@]9(CC[C@H]%10CC(=O)[C@H](CC[C@H]%11C[C@@H](C)C(=O)C(C[C@@H]4O[C@H]2C[C@H]1O3)O%11)O%10)CC8O[C@@H]7[C@@H](O9)[C@H]6O5 (stereo not given in full)
(A) TRUE

(Q) For this compound, state the assay outcome: COc1cc(OC)cc(-n2c(N)c(-c3nc4ccccc4s3)c3ccc([N+](=O)[O-])cc3c2=O)c1
(A) FALSE

(Q) For this compound, state the assay outcome: O=C1/C(=C\c2ccc([N+](=O)[O-])cc2)CS(=O)(=O)C/C1=C/c1ccc([N+](=O)[O-])cc1
(A) TRUE
